The origin of these recorded values is paper PMC10577934.

Measured Km accompanies every entry in the list below.
Substrate: O=C(Nc1ccccc1)C(=O)c1ccccc1
Test: initial velocity by HPLC of product, nonlinear Michaelis-Menten fit
Assay type: biochemical, Bacillus subtilis
Conditions: NAD(P)H cofactor, potassium phosphate 100 mM pH 7.0, 30 °C
// return the numeric value with its unit appended

Below, each entry is followed by its recorded Km result.
protein: iolS (Bacillus subtilis subsp. subtilis str. 168) (protein, pET28a, His-tagged, expressed in E. coli BL21(DE3), Ni-NTA purified) MKKAKLGKSDLQVFPIGLGTNAVGGHNLYPNLNEETGKELVREAIRNGVTMLDTAYIYGIGRSEELIGEVLREFNREDVVIATKAAHRKQGNDFVFDNSPDFLKKSVDESLKRLNTDYIDLFYIHFPDEHTPKDEAVNALNEMKKAGKIRSIGVSNFSLEQLKEANKDGLVDVLQGEYNLLNREAEKTFFPYTKEHNISFIPYFPLVSGLLAGKYTEDTTFPEGDLRNEQEHFKGERFKENIRKVNKLAPIAEKHNVDIPHIVLAWYLARPEIDILIPGAKRADQLIDNIKTADVTLSQEDISFIDKLFA
property.label: Km
result: 1810 ± 130 µM
--
protein: iolS (Bacillus subtilis subsp. subtilis str. 168; F126L) (protein, pET28a, His-tagged, expressed in E. coli BL21(DE3), Ni-NTA purified) MKKAKLGKSDLQVFPIGLGTNAVGGHNLYPNLNEETGKELVREAIRNGVTMLDTAYIYGIGRSEELIGEVLREFNREDVVIATKAAHRKQGNDFVFDNSPDFLKKSVDESLKRLNTDYIDLFYIHLPDEHTPKDEAVNALNEMKKAGKIRSIGVSNFSLEQLKEANKDGLVDVLQGEYNLLNREAEKTFFPYTKEHNISFIPYFPLVSGLLAGKYTEDTTFPEGDLRNEQEHFKGERFKENIRKVNKLAPIAEKHNVDIPHIVLAWYLARPEIDILIPGAKRADQLIDNIKTADVTLSQEDISFIDKLFA
property.label: Km
result: 1550 ± 220 µM
--
protein: iolS (Bacillus subtilis subsp. subtilis str. 168; N21A) (protein, pET28a, His-tagged, expressed in E. coli BL21(DE3), Ni-NTA purified) MKKAKLGKSDLQVFPIGLGTAAVGGHNLYPNLNEETGKELVREAIRNGVTMLDTAYIYGIGRSEELIGEVLREFNREDVVIATKAAHRKQGNDFVFDNSPDFLKKSVDESLKRLNTDYIDLFYIHFPDEHTPKDEAVNALNEMKKAGKIRSIGVSNFSLEQLKEANKDGLVDVLQGEYNLLNREAEKTFFPYTKEHNISFIPYFPLVSGLLAGKYTEDTTFPEGDLRNEQEHFKGERFKENIRKVNKLAPIAEKHNVDIPHIVLAWYLARPEIDILIPGAKRADQLIDNIKTADVTLSQEDISFIDKLFA
property.label: Km
result: 1160 ± 160 µM
--
protein: iolS (Bacillus subtilis subsp. subtilis str. 168; F126A/N21A) (protein, pET28a, His-tagged, expressed in E. coli BL21(DE3), Ni-NTA purified) MKKAKLGKSDLQVFPIGLGTAAVGGHNLYPNLNEETGKELVREAIRNGVTMLDTAYIYGIGRSEELIGEVLREFNREDVVIATKAAHRKQGNDFVFDNSPDFLKKSVDESLKRLNTDYIDLFYIHAPDEHTPKDEAVNALNEMKKAGKIRSIGVSNFSLEQLKEANKDGLVDVLQGEYNLLNREAEKTFFPYTKEHNISFIPYFPLVSGLLAGKYTEDTTFPEGDLRNEQEHFKGERFKENIRKVNKLAPIAEKHNVDIPHIVLAWYLARPEIDILIPGAKRADQLIDNIKTADVTLSQEDISFIDKLFA
property.label: Km
result: 1650 ± 120 µM

Turning to the following protein.
Exam item: Consider the protein iolS (Bacillus subtilis subsp. subtilis str. 168; I57F) (protein, pET28a, His-tagged, expressed in E. coli BL21(DE3), Ni-NTA purified) MKKAKLGKSDLQVFPIGLGTNAVGGHNLYPNLNEETGKELVREAIRNGVTMLDTAYFYGIGRSEELIGEVLREFNREDVVIATKAAHRKQGNDFVFDNSPDFLKKSVDESLKRLNTDYIDLFYIHFPDEHTPKDEAVNALNEMKKAGKIRSIGVSNFSLEQLKEANKDGLVDVLQGEYNLLNREAEKTFFPYTKEHNISFIPYFPLVSGLLAGKYTEDTTFPEGDLRNEQEHFKGERFKENIRKVNKLAPIAEKHNVDIPHIVLAWYLARPEIDILIPGAKRADQLIDNIKTADVTLSQEDISFIDKLFA and give its measured Km.
Marked response: 1720 ± 130 µM
